Measured values drawn from patent US20240270715A1 for this set.

Here the recorded IC50 is given for each entry.
target: recombinant human transglutaminase 2 (Homo sapiens, UniProt P21980); experiment: Transglutaminase assay: incorporation of dansylcadaverine into dimethylcasein (DCC-assay); type: biochemical; conditions: recombinant human TG2 10 nM, dansylcadaverine/dimethylcasein; read-out: IC50 TG2
Sequence (P21980 whole entry): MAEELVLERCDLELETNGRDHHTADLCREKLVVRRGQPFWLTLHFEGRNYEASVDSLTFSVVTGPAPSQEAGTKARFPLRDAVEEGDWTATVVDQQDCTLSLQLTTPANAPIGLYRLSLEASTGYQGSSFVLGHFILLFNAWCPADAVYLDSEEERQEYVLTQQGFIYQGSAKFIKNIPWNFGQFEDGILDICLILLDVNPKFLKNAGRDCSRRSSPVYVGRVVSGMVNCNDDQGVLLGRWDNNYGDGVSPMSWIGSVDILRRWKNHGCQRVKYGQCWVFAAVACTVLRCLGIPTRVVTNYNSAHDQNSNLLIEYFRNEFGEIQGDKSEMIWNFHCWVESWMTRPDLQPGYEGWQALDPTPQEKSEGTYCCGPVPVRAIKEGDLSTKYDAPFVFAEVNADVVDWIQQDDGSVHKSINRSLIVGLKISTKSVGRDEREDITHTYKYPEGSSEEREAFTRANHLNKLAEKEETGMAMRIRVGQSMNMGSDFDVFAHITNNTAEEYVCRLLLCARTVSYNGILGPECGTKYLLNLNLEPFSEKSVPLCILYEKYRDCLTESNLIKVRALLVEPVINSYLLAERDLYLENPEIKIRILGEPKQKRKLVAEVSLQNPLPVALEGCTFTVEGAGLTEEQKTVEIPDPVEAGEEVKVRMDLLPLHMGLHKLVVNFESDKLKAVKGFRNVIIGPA

{"columns": ["compound", "target.of.assay", "IC50"],
 "data": [
  ["CCNC(=O)C(=O)CC[C@H](NC(=O)c1cnn(C)c1)C(=O)Nc1cccn(CC(=O)NC23CC4CC5C2C[C@@H]2C[C@H]5C(C4)[C@H]3C2)c1=O", "recombinant human transglutaminase 2 (Homo sapiens, UniProt P21980)", "150 to 600 nM"],
  ["CCNC(=O)C(=O)CC[C@H](NC(=O)c1cc2c(Br)cccc2o1)C(=O)Nc1cccn(CC(=O)NC2C3CC4CC(C3)CC2C4)c1=O (stereo partly drawn)", "recombinant human transglutaminase 2 (Homo sapiens, UniProt P21980)", "< 150 nM"],
  ["CCNC(=O)C(=O)CC[C@H](NC(=O)c1ccc2occc2c1)C(=O)Nc1cccn(CC(=O)NC2C3CC4CC2CC(NC(C)=O)(C4)C3)c1=O (stereo partly drawn)", "recombinant human transglutaminase 2 (Homo sapiens, UniProt P21980)", "150 to 600 nM"],
  ["CCNC(=O)C(=O)CC[C@H](NC(=O)c1nccn1C)C(=O)Nc1cccn(CC(=O)NC23CC4CC(CC(CC)(C4)C2)C3)c1=O", "recombinant human transglutaminase 2 (Homo sapiens, UniProt P21980)", "600 to 3500 nM"],
  ["CCNC(=O)C(=O)CC[C@H](NC(=O)c1c[nH]c(C(N)=O)c1)C(=O)Nc1cccn(CC(=O)NC23CC(C2)C3)c1=O", "recombinant human transglutaminase 2 (Homo sapiens, UniProt P21980)", "600 to 3500 nM"],
  ["CCNC(=O)C(=O)CC[C@H](NC(=O)c1cncnc1C)C(=O)Nc1cccn(CC(=O)NC2C3CC4CC2CC(C(=O)O)(C4)C3)c1=O (stereo partly drawn)", "recombinant human transglutaminase 2 (Homo sapiens, UniProt P21980)", "150 to 600 nM"]
]}

---

molecular target: recombinant human transglutaminase 2 (Homo sapiens); assay: Transglutaminase assay: incorporation of dansylcadaverine into dimethylcasein (DCC-assay); assay type: biochemical; conditions: recombinant human TG2 10 nM, dansylcadaverine/dimethylcasein; read-out: IC50 TG2

{"columns": ["molecule", "IC50"],
 "data": [
  ["CCNC(=O)C(=O)CC[C@H](NC(=O)c1ncns1)C(=O)Nc1cccn(CC(=O)NC23CC(C2)C3)c1=O [Compound I-118]", "0.15 to 0.6 µM"],
  ["CCNC(=O)C(=O)CC[C@H](NC(=O)c1oc2ccccc2c1Cl)C(=O)Nc1cccn(CC(=O)NC2C3CC4CC(C3)CC2C4)c1=O (stereo partly drawn) [Compound I-32]", "< 0.15 µM"],
  ["CCNC(=O)C(=O)CC[C@H](NC(=O)c1cccnc1)C(=O)Nc1cccn(CC(=O)NCCc2ccccc2)c1=O [Ref. 4, reference compound]", "3.5 to 10 µM"],
  ["CCNC(=O)C(=O)CC[C@H](NC(=O)c1cc2cccnc2nc1C)C(=O)Nc1cccn(CC(=O)NC23CC(C2)C3)c1=O [Compound I-103]", "0.6 to 3.5 µM"],
  ["CCC(CC)CNC(=O)Cn1cccc(NC(=O)[C@H](CCC(=O)C(=O)NC)NC(=O)c2cncn2C)c1=O [Ref. 1, reference compound]", "0.6 to 3.5 µM"],
  ["CCOC(=O)/C=C/CC[C@H](NC(=O)c1cccnc1)C(=O)Nc1ccc(C)n(CC(=O)NCCc2ccccc2)c1=O [Ref. 3, reference compound]", "3.5 to 10 µM"]
]}
